# measurement-protocol: Solubility in various solvents at 25° C. and 50° C.
# Format: physicochemical
# condition-info: organic solvent or mixture; Acetonitrile, 25° C.
reported-endpoint: solubility (mg/mL)
Lab book: enter the figure in mg/mL, no units written.

Request: Using the record for CC(C)(Cc1ccc(F)cc1)NC(=O)[C@H](CCC(=O)O)NC(=O)c1ccc(-c2ccccc2)cc1 , report its solubility.
Result: 43

---

# measurement-protocol: in vitro
# condition-info: human, Caco-2, pH 7.4
reported-endpoint: Papp B→A (×10⁻⁶ cm/s)
Lab book: enter the figure in ×10⁻⁶ cm/s, no units written.

Request: Using the record for C[C@H]1O[C@@H](O[C@H]2[C@@H](O)C[C@H](O[C@H]3[C@@H](O)C[C@H](O[C@H]4CC[C@@]5(C)[C@H](CC[C@@H]6[C@@H]5C[C@@H](O)[C@]5(C)[C@@H](C7=CC(=O)OC7)CC[C@]65O)C4)O[C@@H]3C)O[C@@H]2C)C[C@H](O)[C@@H]1O , report its Papp B→A.
Result: 29.4

---

# measurement-protocol: First CACO-2 study, metoprolol as reference
# condition-info: human, Caco-2, pH 7.4
reported-endpoint: efflux ratio
Please give the numeric answer without any surrounding text.

Request: Using the record for CC(C)(Cc1ccc(F)cc1)NC(=O)[C@H](CCC(=O)O)NC(=O)c1ccc(-c2ccccc2)cc1 , report its efflux ratio.
Result: 2.36

Every entry's value here was drawn from patent US20100216886A1.
